test system: Cholinesterase (Equus caballus)
Sequence (P81908 whole entry): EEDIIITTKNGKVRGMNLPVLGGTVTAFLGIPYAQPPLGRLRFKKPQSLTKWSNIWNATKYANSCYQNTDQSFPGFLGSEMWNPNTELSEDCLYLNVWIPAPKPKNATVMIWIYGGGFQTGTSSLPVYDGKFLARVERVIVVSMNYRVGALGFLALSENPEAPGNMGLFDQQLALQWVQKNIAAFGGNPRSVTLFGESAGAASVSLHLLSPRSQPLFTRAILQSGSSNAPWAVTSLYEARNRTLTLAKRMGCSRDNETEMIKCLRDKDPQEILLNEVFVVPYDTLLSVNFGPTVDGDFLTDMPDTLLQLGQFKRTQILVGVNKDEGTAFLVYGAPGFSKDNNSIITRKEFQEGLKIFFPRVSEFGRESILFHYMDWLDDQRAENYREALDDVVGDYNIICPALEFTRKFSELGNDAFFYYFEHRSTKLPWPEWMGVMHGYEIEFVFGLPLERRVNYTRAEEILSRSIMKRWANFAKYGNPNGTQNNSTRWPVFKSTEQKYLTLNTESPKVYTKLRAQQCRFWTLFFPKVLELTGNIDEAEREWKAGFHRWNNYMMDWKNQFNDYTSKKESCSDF
assay: Inhibition of equine serum BuChE using BTCI as substrate preincubated for 30 mins followed by substrate addition measured after 30 mins by Ellman assay
Recorded measurements of IC50, one per entry
property: IC50

* COc1ccc(-c2nc(NC3CCN(Cc4ccc(C)cc4)CC3)sc2-c2ccc(OC)cc2)cc1 | 2250 nM
* COc1ccc(-c2nc(NCC3CCN(Cc4c(F)cccc4Cl)CC3)sc2-c2ccc(OC)cc2)cc1 | 2150 nM
* Cc1ccc(-c2nc(NC(=O)C3CCN(Cc4ccc(F)cc4Cl)CC3)sc2-c2ccc(C)cc2)cc1 | 1600 nM

###

Recorded measurements of Papp at 2 h, 100 ug/ml, one per entry
assay: Permeability of the compound at 100 ug/ml incubated for 120 mins by PAMPA
Assay type: ADME
condition parameters: read-out: Peff
property: Papp at 2 h, 100 ug/ml (×10⁻⁶ cm/s)

* Cc1ccc(-c2nc(NCC3CCN(Cc4cc(F)cc(F)c4)CC3)sc2-c2ccc(C)cc2)cc1 | 14.5
* COc1ccc(-c2nc(NC3CCN(Cc4ccc(C)cc4)CC3)sc2-c2ccc(OC)cc2)cc1 | 9.6
* COc1ccc(CN2CCC(Nc3nc(-c4ccc(OC)cc4)c(-c4ccc(OC)cc4)s3)CC2)cc1 | 10.3
* COc1ccc(-c2nc(NCC3CCN(Cc4c(F)cccc4Cl)CC3)sc2-c2ccc(OC)cc2)cc1 | 12.2
